System: MS2 coat protein
PROCEDURE TEXT: apparent KD of MS2 coat protein; designed switch direction (-1 OFF switch, 1 ON switch): -1; higher = weaker reporter binding
CONDITION SUMMARY: input ligand: none
Could you please report measured apparent KD of MS2 coat protein for the items listed next?
Answers are plain numbers, in nM.

{"SEQUENCE DATA": "GACAGUCGAGGAUAUACGAUCGUGCUUCGGCACGUAAGAUCACAUGAGGAUCACCCAUGUAGAAGGCGACUGUC [Mod 6 - Jieux - Exclusion 2] (Eterna round: R97, puzzle: Exclusion 2)", "apparent KD of MS2 coat protein, nM": 31.7}
{"SEQUENCE DATA": "UAUUGCAAGCGAAGAUCCCACAUGAGGAUCACCCAUGUGCUCGUCUUAUAAGGUACUGUGACGAUAGUCACGGUACC [Mat - Sensor, turn-off var - Eli Mod - D76] (Eterna round: R97, puzzle: Sensor, turn-off variant 1)", "apparent KD of MS2 coat protein, nM": 30.6}
{"SEQUENCE DATA": "CCGCUCCGUGUAGGAUAUUGGCCUGCUCUGGGCCGAGAAGGACAUGAGGAUCACCCAUGUAUGUUAUUAUCACGCGUGGCGCAU [Design 79] (Eterna round: R96, puzzle: Exclusion NG 1)", "apparent KD of MS2 coat protein, nM": 21.6}
{"SEQUENCE DATA": "AAGAAGCGAGGAUAUACAGGCGGCGACAUGAGGAUCACCCAUGUGGUGGCCCACGCCGUGGUAGAAGGCGUUAAAG [Ordiceinri] (Eterna round: R97, puzzle: Exclusion 5)", "apparent KD of MS2 coat protein, nM": 245}

Note: attention shifts to another entry.
Task: Tell me apparent KD of MS2 coat protein reported for AGCUGACGAGGAUAUACAUGAGGAUCACCCAUGUUGGUUCAGCGACGAUAGUCGCAAUGUAGAAGGCGUCAGCU [E3/9-A1] (Eterna round: R97, puzzle: Exclusion 3)
Output: 496

Reference source for all entries: the supplement of paper PMC9170038
